# test.protocol: physchem
# stated.conditions: poloxamer 188 solution, 100 mg/ml, aqueous with cosolvent or surfactant or cyclodextrin
Where a name gives a salt, the structure may show the parent alone.
measured.endpoint: solubility (µg/mL)
Entry rule: numbers only, all in µg/mL.

Look up solubility for this compound: Cc1cn(-c2cc(NC(=O)c3ccc(C)c(Nc4nccc(-c5cccnc5)n4)c3)cc(C(F)(F)F)c2)cn1 [API, Nilotinib Hydrochloride Monohydrate]
321

----------
# test.protocol: physchem
# stated.conditions: poloxamer 407 solution, 10 mg/ml, aqueous with cosolvent or surfactant or cyclodextrin
Counter-ions that a name gives are not always drawn.
measured.endpoint: solubility (µg/mL)
Write the number in µg/mL without appending the unit.

Would you mind telling me what solubility value was observed for Cc1cn(-c2cc(NC(=O)c3ccc(C)c(Nc4nccc(-c5cccnc5)n4)c3)cc(C(F)(F)F)c2)cn1 [API, Nilotinib Hydrochloride Monohydrate] ?
227

----------
# test.protocol: physchem
Counter-ions that a name gives are not always drawn.
measured.endpoint: solubility (µg/mL)
Please respond with the number in µg/mL and leave the unit unwritten.

Fill in the blank: the reported solubility of Cc1cn(-c2cc(NC(=O)c3ccc(C)c(Nc4nccc(-c5cccnc5)n4)c3)cc(C(F)(F)F)c2)cn1 [API, Nilotinib Hydrochloride Monohydrate] is ____.
0.2

----------
# test.protocol: physchem
# stated.conditions: 0.01N HCl, simulated gastric fluid
Structures can show the parent of a compound that is named as a salt.
measured.endpoint: solubility (µg/mL)
// note: answer is a bare numeric in µg/mL

Would you mind telling me what solubility value was observed for Cc1cn(-c2cc(NC(=O)c3ccc(C)c(Nc4nccc(-c5cccnc5)n4)c3)cc(C(F)(F)F)c2)cn1 [API, Nilotinib Hydrochloride Monohydrate] ?
494

The reported numbers originate from patent US20260207592A1.
